Catalogue of SARS-CoV-2 infection rate values
Test system: Vero E6 infected with SARS-CoV-2
procedure.text: SARS-CoV-2 infection rate relative to infected DMSO; higher = more infection, active = 60 or less
condition.parameters: 24 h
Express your answer in %, writing the number without its unit.

The cases that follow already have their SARS-CoV-2 infection rate on record.
| compound | system | SARS-CoV-2 infection rate, % |
| --- | --- | --- |
| CCCCCC(O)CCCC(=O)O (configuration not stated) (10 µM) | Vero E6 infected with SARS-CoV-2 | 103 |
| CCc1cc2c(s1)-n1c(C)nnc1CN=C2c1ccccc1Cl [etizolam] (10 µM) | Vero E6 infected with SARS-CoV-2 | 103 |
| CCNC(=O)[C@@H]1CCCN1C(=O)[C@H](CCCNC(=N)N)NC(=O)[C@H](CC(C)C)NC(=O)[C@@H](CC(C)C)NC(=O)[C@H](Cc1ccc(O)cc1)NC(=O)[C@H](CO)NC(=O)[C@H](Cc1c[nH]c2ccccc12)NC(=O)[C@H](Cc1c[nH]cn1)NC(=O)[C@@H]1CCC(=O)N1 [leuprolide] (10 µM) | Vero E6 infected with SARS-CoV-2 | 118 |
| C[C@@H]1CCO[C@H]2Cn3cc(C(=O)NCc4ccc(F)cc4F)c(=O)c(O)c3C(=O)N12 [dolutegravir] (10 µM) | Vero E6 infected with SARS-CoV-2 | 112 |
| Cc1cc(O)c2c(c1)C(=O)c1cccc(O)c1C2=O [chrysophanic-acid] (10 µM) | Vero E6 infected with SARS-CoV-2 | 110 |
| O=C1NCCN1c1ncc([N+](=O)[O-])s1 [niridazole] (10 µM) | Vero E6 infected with SARS-CoV-2 | 95 |

*Q* Annotate the compound CCCCCCCCCCCCc1ccc(S(=O)(=O)Nc2nncs2)cc1 (10 µM) with its measured SARS-CoV-2 infection rate.
*A* 93
